All values here come from ChEMBL document CHEMBL3988442.

Target: Arginase-2, mitochondrial (Homo sapiens)
Sequence (whole entry): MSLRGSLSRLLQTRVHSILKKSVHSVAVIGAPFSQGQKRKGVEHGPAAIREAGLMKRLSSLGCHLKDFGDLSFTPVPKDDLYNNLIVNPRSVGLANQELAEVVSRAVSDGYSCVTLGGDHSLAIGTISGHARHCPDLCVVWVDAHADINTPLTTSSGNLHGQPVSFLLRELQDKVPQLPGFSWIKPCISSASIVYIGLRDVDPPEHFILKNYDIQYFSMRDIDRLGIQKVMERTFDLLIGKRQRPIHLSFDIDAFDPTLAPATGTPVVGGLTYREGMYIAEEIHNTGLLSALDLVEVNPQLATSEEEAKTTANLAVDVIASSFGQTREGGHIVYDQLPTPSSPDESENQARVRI
Experiment: in vitro enzyme assay to detect the production of urea directly proportional to the activity of Arginase II
Type: functional
Parameters: scale not given: in the data most compounds retested in dose-response had high values
Settings: 33.3 µM
READOUT: Percent Effect

# count of solved cases: 6
INSERT INTO results (compound, readout, result) VALUES
  ('COc1ccc(C2CCCCCN2S(=O)(=O)N(C)C)cc1 (configuration not stated)', 'Percent Effect', '18.1%'),
  ('CCOc1cccc(CNC(=O)NCC(O)c2cccc(F)c2)c1 (configuration not stated)', 'Percent Effect', '-6.01%'),
  ('COc1c(CNCc2ccc(N(C)C)nc2)c(C(C)C)nn1C', 'Percent Effect', '4.6%'),
  ('COc1ncccc1CNC(=O)NC1CCOc2ccccc21 (configuration not stated)', 'Percent Effect', '0.185%'),
  ('CCOc1ccccc1OC1CCN(C(=O)c2ccc(=O)[nH]n2)CC1', 'Percent Effect', '2.3%'),
  ('CC(C)C(C(=O)N1CCN(c2ccncc2)CC1)n1cncn1 (configuration not stated)', 'Percent Effect', '-34.5%');

Quick note, Percent Effect for `COc1ccc(CCN2CCc3c(nc(C4CC4)n3C)C2)cc1` landed at 0.356%

Just so you know, measured Percent Effect for `CCC(C)(C)NC(=O)Cn1nc(C)nc1-c1cccc(C)c1` came out at 1.07%

Per the records, this compound ( CCCc1n[nH]c(C2CN(CCCOc3ccccc3)CCO2)n1 (configuration not stated) ) has Percent Effect equal to 1.5%

Summary for this compound, COc1ccc(C(O)CNc2c(C#N)c(=O)n(C)c(=O)n2C)cc1 (configuration not stated) : Percent Effect is 5.32%

Entry Cc1noc(C)c1C(=O)NCC(C)N(C)C (configuration not stated) , Percent Effect reported as -1.29%

The compound COc1ccccc1CC1CCCN(CCC#N)C1 (configuration not stated) showed Percent Effect equal to 4.42%
